- measurementTarget: PRMT5/MEP50 (Homo sapiens)
- Construct: Expressed full-length human Flag-PRMT5/6His-MeP50 protein complex was purified; made in house; host or cells: Spodoptera frugiperda (SF9) insect cells, baculovirus (pDEST8)
- Sequence (O14744 with tags, fused parts or gaps): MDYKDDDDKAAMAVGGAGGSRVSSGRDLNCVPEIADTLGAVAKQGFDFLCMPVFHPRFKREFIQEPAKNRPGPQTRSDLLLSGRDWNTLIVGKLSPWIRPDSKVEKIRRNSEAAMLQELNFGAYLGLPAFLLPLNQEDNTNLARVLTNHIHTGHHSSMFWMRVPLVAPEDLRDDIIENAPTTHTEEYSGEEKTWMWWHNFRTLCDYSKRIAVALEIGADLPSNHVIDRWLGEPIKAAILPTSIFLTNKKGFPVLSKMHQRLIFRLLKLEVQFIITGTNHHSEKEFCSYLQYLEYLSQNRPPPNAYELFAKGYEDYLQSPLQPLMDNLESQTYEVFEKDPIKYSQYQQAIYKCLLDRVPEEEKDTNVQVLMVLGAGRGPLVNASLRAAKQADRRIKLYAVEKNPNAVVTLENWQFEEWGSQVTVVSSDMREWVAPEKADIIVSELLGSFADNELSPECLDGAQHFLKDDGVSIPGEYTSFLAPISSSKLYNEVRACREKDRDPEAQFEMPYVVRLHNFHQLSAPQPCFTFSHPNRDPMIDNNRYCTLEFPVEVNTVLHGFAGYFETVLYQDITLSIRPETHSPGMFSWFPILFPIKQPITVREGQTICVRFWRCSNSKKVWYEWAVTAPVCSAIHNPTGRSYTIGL
- Sequence (Q9BQA1 with tags, fused parts or gaps partner limits assumed): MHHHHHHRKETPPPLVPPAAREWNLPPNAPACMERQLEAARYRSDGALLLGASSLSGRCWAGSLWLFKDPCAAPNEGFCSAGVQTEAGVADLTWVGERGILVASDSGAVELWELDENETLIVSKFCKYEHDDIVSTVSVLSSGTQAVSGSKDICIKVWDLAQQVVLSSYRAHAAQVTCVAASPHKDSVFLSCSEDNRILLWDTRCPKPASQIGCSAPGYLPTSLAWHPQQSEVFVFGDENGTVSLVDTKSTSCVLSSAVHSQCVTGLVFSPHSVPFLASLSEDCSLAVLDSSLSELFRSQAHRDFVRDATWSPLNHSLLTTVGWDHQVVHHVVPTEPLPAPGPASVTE
- procedureSummary: PRMT5 Biochemical Assay (PRMT5/MEP50 enzyme assay on peptide substrate, 3H-SAM Flashplate)
- runConditions: Table D-2; read-out: Biochemical IC50
pIC50: −log10 of the molar value.
Examples of compounds with documented pIC50 follow.
metric: pIC50

INSERT INTO assay_data (compound, metric, val) VALUES
  ('NC(=O)c1cccc(-c2cccc(OCC(O)CN3CCc4ccccc4C3)c2)c1 (stereo not drawn)', 'pIC50', '6.00 to 7.00'),
  ('Cc1cn(C)c2cc(-c3cccc(OCC(O)CN4CCc5ccccc5C4)c3)ccc12 (stereo not drawn)', 'pIC50', '6.00 to 7.00'),
  ('OC(COc1cccc(C2=CCCCC2)c1)CN1CCc2ccccc2C1 (stereo not drawn)', 'pIC50', '5.00 to 6.00'),
  ('COC(=O)c1cncc(-c2cccc(OCC(O)CN3CCc4ccccc4C3)c2)c1 (stereo not drawn)', 'pIC50', '5.00 to 6.00'),
  ('Cc1ccc(-c2cccc(OCC(O)CN3CCc4ccccc4C3)c2)cn1 (stereo not drawn)', 'pIC50', '5.00 to 6.00'),
  ('CC(C)(C)OC(=O)N1CCC(OCC(O)CN2CCc3ccccc3C2)CC1 (stereo not drawn)', 'pIC50', '5.00 to 6.00'),
  ('OC(CNc1cc(-c2ncc3ccn(C4CCNCC4)c3n2)ccn1)CN1CCc2ccccc2C1 (stereo not drawn)', 'pIC50', '> 7.00'),
  ('O=C(Nc1cccnc1)c1cccc(OCC(O)CN2CCc3ccccc3C2)c1 (stereo not drawn)', 'pIC50', '5.00 to 6.00'),
  ('Cc1ccncc1-c1cccc(OCC(O)CN2CCc3ccccc3C2)c1 (stereo not drawn)', 'pIC50', '6.00 to 7.00');

* * *

- measurementTarget: PRMT5/MEP50 (Homo sapiens)
- Construct: Expressed full-length human Flag-PRMT5/6His-MeP50 protein complex was purified; made in house; host or cells: Spodoptera frugiperda (SF9) insect cells, baculovirus (pDEST8)
- procedureSummary: PRMT5 Biochemical Assay (PRMT5/MEP50 enzyme assay on peptide substrate, 3H-SAM Flashplate)
- runConditions: Table A-2; PRMT5/MEP50 4 nM, 3H-SAM 75 nM, peptide 40 nM; read-out: Biochemical IC50
pIC50: −log10 of the molar value.
metric: pIC50

INSERT INTO assay_data (molecule, measurementtarget, val) VALUES
  ('O=C(COc1ccccc1F)NCC(O)CN1CCc2ccccc2C1 (centres unmarked) [Compound A16]', 'PRMT5/MEP50 (Homo sapiens)', '6.00 to 7.00'),
  ('O=C(COc1ccccc1C1CCNC1)NCC(O)CN1CCc2ccccc2C1 (centres unmarked) [Compound A116]', 'PRMT5/MEP50 (Homo sapiens)', '5.00 to 6.00'),
  ('O=C(Cc1ccncc1)NCC(O)CN1CCc2ccccc2C1 (centres unmarked) [Compound A51]', 'PRMT5/MEP50 (Homo sapiens)', '4.30 to 5.00'),
  ('O=C(COc1cccc2[nH]c(=O)cnc12)NCC(O)CN1CCc2ccccc2C1 (centres unmarked) [Compound A125]', 'PRMT5/MEP50 (Homo sapiens)', '5.00 to 6.00'),
  ('Nc1ncccc1OCC(=O)NCC(O)CN1CCc2ccccc2C1 (centres unmarked) [Compound A145]', 'PRMT5/MEP50 (Homo sapiens)', '5.00 to 6.00'),
  ('O=C(CNc1ccccc1)NCC(O)CN1CCc2ccccc2C1 (centres unmarked) [Compound A18]', 'PRMT5/MEP50 (Homo sapiens)', '5.00 to 6.00'),
  ('CS(=O)(=O)N1CCN(c2ccccc2OCC(=O)NCC(O)CN2CCc3ccccc3C2)CC1 (centres unmarked) [Compound A106]', 'PRMT5/MEP50 (Homo sapiens)', '6.00 to 7.00'),
  ('COc1ccc2cccc(OCC(=O)NC[C@H](O)CN3CCc4ccccc4C3)c2n1 [Compound A97]', 'PRMT5/MEP50 (Homo sapiens)', '6.00 to 7.00'),
  ('CN1CCC(c2ccccc2OCC(=O)NCC(O)CN2CCc3ccccc3C2)C1 (centres unmarked) [Compound A136]', 'PRMT5/MEP50 (Homo sapiens)', '5.00 to 6.00'),
  ('O=C(COc1cccc2ncc(=O)[nH]c12)NCC(O)CN1CCc2ccccc2C1 (centres unmarked) [Compound A129]', 'PRMT5/MEP50 (Homo sapiens)', '6.00 to 7.00'),
  ('CS(=O)(=O)Nc1ncccc1OCC(=O)NCC(O)CN1CCc2ccccc2C1 (centres unmarked) [Compound A139]', 'PRMT5/MEP50 (Homo sapiens)', '< 5.00'),
  ('O=C(COc1cccc2c1OCC(=O)N2)NCC(O)CN1CCc2ccccc2C1 (centres unmarked) [Compound A124]', 'PRMT5/MEP50 (Homo sapiens)', '5.00 to 6.00'),
  ('O=C(COc1ccccc1C1CCNCC1)NCC(O)CN1CCc2ccccc2C1 (centres unmarked) [Compound A103]', 'PRMT5/MEP50 (Homo sapiens)', '> 7.00'),
  ('C[C@@H](Oc1cccc2cccnc12)C(=O)NC[C@H](O)CN1CCc2ccccc2C1 [Compound A73]', 'PRMT5/MEP50 (Homo sapiens)', '> 7.00'),
  ('O=C(COc1ccccc1OCCN1CCOCC1)NC[C@H](O)CN1CCc2ccccc2C1 [Compound A86]', 'PRMT5/MEP50 (Homo sapiens)', '> 7.00'),
  ('O=C(COc1cccc2nccnc12)NCC(O)CN1CCc2ccccc2C1 (centres unmarked) [Compound A92]', 'PRMT5/MEP50 (Homo sapiens)', '> 7.00'),
  ('O=C(COc1cccc2c1CCCC2)NCC(O)CN1CCc2ccccc2C1 (centres unmarked) [Compound A64]', 'PRMT5/MEP50 (Homo sapiens)', '> 7.00'),
  ('O=C(COc1ccccc1S(=O)(=O)N1CCCC1)NCC(O)CN1CCc2ccccc2C1 (centres unmarked) [Compound A110]', 'PRMT5/MEP50 (Homo sapiens)', '> 7.00'),
  ('CN1CCCc2c(OCC(=O)NCC(O)CN3CCc4ccccc4C3)cccc21 (centres unmarked) [Compound A151]', 'PRMT5/MEP50 (Homo sapiens)', '6.00 to 7.00'),
  ('CN1CCOc2cccc(OCC(=O)NCC(O)CN3CCc4ccccc4C3)c21 (centres unmarked) [Compound A81]', 'PRMT5/MEP50 (Homo sapiens)', '> 7.00'),
  ('O=C(COc1cccc(C(=O)N2CCOCC2)c1)NCC(O)CN1CCc2ccccc2C1 (centres unmarked) [Compound A83]', 'PRMT5/MEP50 (Homo sapiens)', '6.00 to 7.00'),
  ('CC(C)(C)OC(=O)Nc1ccccc1OCC(=O)NCC(O)CN1CCc2ccccc2C1 (centres unmarked) [Compound A141]', 'PRMT5/MEP50 (Homo sapiens)', '5.00 to 6.00'),
  ('O=C(COc1cccc2c1CCCN2)NCC(O)CN1CCc2ccccc2C1 (centres unmarked) [Compound A150]', 'PRMT5/MEP50 (Homo sapiens)', '6.00 to 7.00'),
  ('CN1C(=O)COc2cccc(OCC(=O)NCC(O)CN3CCc4ccccc4C3)c21 (centres unmarked) [Compound A80]', 'PRMT5/MEP50 (Homo sapiens)', '> 7.00'),
  ('NC(=O)c1cccc(OCC(=O)NCC(O)CN2CCc3ccccc3C2)c1 (centres unmarked) [Compound A34]', 'PRMT5/MEP50 (Homo sapiens)', '6.00 to 7.00'),
  ('O=C(COc1cccc2cccnc12)NCC(O)CN1Cc2ccccc2C(F)(F)C1 (centres unmarked) [Compound A144]', 'PRMT5/MEP50 (Homo sapiens)', '< 5.00'),
  ('Cn1ncc2c(OCC(=O)NCC(O)CN3CCc4ccccc4C3)cccc21 (centres unmarked) [Compound A82]', 'PRMT5/MEP50 (Homo sapiens)', '> 7.00'),
  ('O=C(COc1ccccc1S(=O)(=O)N1CCNCC1)NCC(O)CN1CCc2ccccc2C1 (centres unmarked) [Compound A107]', 'PRMT5/MEP50 (Homo sapiens)', '> 7.00'),
  ('O=C(COc1cccc2c1OCCO2)NCC(O)CN1CCc2ccccc2C1 (centres unmarked) [Compound A100]', 'PRMT5/MEP50 (Homo sapiens)', '> 7.00'),
  ('O=C(COc1cccc(CN2CCOCC2)c1)NCC(O)CN1CCc2ccccc2C1 (centres unmarked) [Compound A75]', 'PRMT5/MEP50 (Homo sapiens)', '> 7.00'),
  ('O=C(COc1cccc(NC2CCOCC2)n1)NCC(O)CN1CCc2ccccc2C1 (centres unmarked) [Compound A121]', 'PRMT5/MEP50 (Homo sapiens)', '5.00 to 6.00'),
  ('CC(=O)Nc1ncccc1OCC(=O)NCC(O)CN1CCc2ccccc2C1 (centres unmarked) [Compound A147]', 'PRMT5/MEP50 (Homo sapiens)', '< 5.00'),
  ('O=C(COc1cccc2c1CNCC2)NCC(O)CN1CCc2ccccc2C1 (centres unmarked) [Compound A119]', 'PRMT5/MEP50 (Homo sapiens)', '> 7.00'),
  ('Cn1cc2c(OCC(=O)NCC(O)CN3CCc4ccccc4C3)cccc2n1 (centres unmarked) [Compound A118]', 'PRMT5/MEP50 (Homo sapiens)', '6.00 to 7.00'),
  ('NS(=O)(=O)c1cccc(OCC(=O)NCC(O)CN2CCc3ccccc3C2)c1 (centres unmarked) [Compound A131]', 'PRMT5/MEP50 (Homo sapiens)', '5.00 to 6.00');
